# system-under-test: T1, human CD47-Fc (human, UniProt Q08722 19-139)
# T1 construct: also called hCD47; not shown: Fc part
# experiment-description: BLI (ForteBio), human CD47-Fc on AHQ tip, Fab in solution 100 nM, monovalent

binder	Kd / nM
ADI-29337 Fab fragment (Fab, V domains shown) VH: QVQLQESGPGLVKPSETLSLTCTVSGGSINHYYWSWIRQPPGKGLEWIGAIYYSGSTRYNPSLKSRVTISVDTSKNQFSLKLSSVTAADTAVYYCARGKSAFDPWGQGTLVTVSS VL: DIQMTQSPSSVSASVGDRVTITCRASQGISRWLAWYQQKPGKAPKLLIYAASSLQSGVPSRFSGSGSGTDFTLTISSLQPEDFATYYCQQADLHPPLTFGGGTKVEIKR	2.2

meta.source: patent US20200377593A1
